molecular target: LmxCLK1 (Leishmania mexicana, UniProt E9AMP2); assay: biochemical; type: binding; conditions: DSF, 10 µM compound, 2 µM LmxCLK1, Run 2
ΔTm Run 2 values, listed per item

Compound	Assay Target	ΔTm Run 2 / °C
CN1CCC(CNc2ccc3ncc(-c4cccc(OC(F)(F)F)c4)n3n2)CC1 [SGI-1776 free base]	LmxCLK1 (Leishmania mexicana, UniProt E9AMP2)	0.5
O=c1cc(CN2CCOCC2)occ1OCCCCCSc1ccnc2cc(C(F)(F)F)ccc12 [EHT 1864]	LmxCLK1 (Leishmania mexicana, UniProt E9AMP2)	-0.3
CC(C)(C)c1cc(C=C(C#N)C#N)cc(Br)c1O [AG-1024]	LmxCLK1 (Leishmania mexicana, UniProt E9AMP2)	-0.2
CSc1cccc(Nc2ncc3cc(-c4c(Cl)cccc4Cl)c(=O)n(C)c3n2)c1 [PD173955]	LmxCLK1 (Leishmania mexicana, UniProt E9AMP2)	-0.3

====

target: LmxCLK1 (Leishmania mexicana); experiment: biochemical; type: binding; details: DSF, 10 µM compound, 2 µM LmxCLK1, Run 2; read-out: ΔTm Run 2
In this section we review reported ΔTm at 10 µM values for a set of compounds.

Compound	Assay Target	ΔTm at 10 µM
Cc1c(CN2CCN(C(=O)[C@H](C)O)CC2)sc2c(N3CCOCC3)nc(-c3cnc(N)nc3)nc12 [GDC-0980 (RG7422)]	LmxCLK1 (Leishmania mexicana)	-0.1 °C
N#CCNC(=O)c1ccc(-c2ccnc(Nc3ccc(N4CCOCC4)cc3)n2)cc1	LmxCLK1 (Leishmania mexicana)	-0.1 °C
O=C(Nc1cc(C(F)(F)F)cc(C(F)(F)F)c1)c1cc(Cl)ccc1O	LmxCLK1 (Leishmania mexicana)	-0.1 °C

====

Biological target: LmxCLK1 (Leishmania mexicana)
Sequence (E9AMP2 1-422): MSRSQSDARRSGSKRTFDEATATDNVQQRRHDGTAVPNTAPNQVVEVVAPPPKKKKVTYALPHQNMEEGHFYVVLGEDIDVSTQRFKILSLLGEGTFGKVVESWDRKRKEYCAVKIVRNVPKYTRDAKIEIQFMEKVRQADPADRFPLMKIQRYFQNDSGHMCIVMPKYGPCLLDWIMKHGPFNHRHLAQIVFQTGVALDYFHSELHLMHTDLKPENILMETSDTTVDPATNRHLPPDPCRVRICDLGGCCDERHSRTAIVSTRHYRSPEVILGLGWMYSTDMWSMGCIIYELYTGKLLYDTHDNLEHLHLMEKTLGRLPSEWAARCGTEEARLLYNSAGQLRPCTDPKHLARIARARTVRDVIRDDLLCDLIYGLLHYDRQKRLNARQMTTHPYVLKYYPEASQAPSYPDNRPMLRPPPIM
Test: biochemical
Format: binding
Settings: DSF, 10 µM compound, 2 µM LmxCLK1, Run 2; read-out: ΔTm Run 2
Counter-ions that a name gives are not always drawn.
Reported ΔTm at 10 µM values for a set of molecules
Readout Label: ΔTm at 10 µM (°C)

Molecule	Recorded Number
Cc1cc(NC(=O)c2cccc(NC(=O)/C=C/CN(C)C)c2)ccc1Nc1nccc(-c2cccnc2)n1 [JNK-IN-8]	-0.5
CNC(=O)c1cc(COc2nnc(Nc3ccc(Cl)cc3)c3ccoc23)ccn1 [Telatinib]	-0.5
CCS(=O)(=O)c1cccc(-c2cc(C(=O)NC3CCN(C)CC3)c(C)c3[nH]c4ncc(C)cc4c23)c1 [TAK-901]	1.1
O=C(/C=C/c1ccc(O)c(O)c1)c1ccc(O)cc1O [Butein]	0.4
CCC(=O)Nc1cccc(Oc2nc(Nc3ccc(N4CCN(C)CC4)cc3OC)ncc2Cl)c1 [WZ4003]	-0.1
CCCCOc1c(C(=O)c2c(F)cc(C)cc2F)c[nH]c2nncc1-2 [BMS-265246]	-0.3
O=c1c(-c2ccc(O)cc2)coc2cc(O)cc(O)c12 [Genistein]	0.3
Cc1ncc(-c2ccnc(Nc3ccc(S(C)(=O)=O)cc3)n2)n1C(C)C [AZD5438]	0.8
COC[C@H]1OC(=O)c2coc3c2[C@@]1(C)C1=C(C3=O)[C@@H]2CCC(=O)[C@@]2(C)C[C@H]1OC(C)=O [Wortmannin]	-0.3
C#Cc1cccc(Nc2ncnc3cc(OC)c(OCCCCCCC(=O)NO)cc23)c1 [CUDC-101]	0.2
Cc1cc(Nc2ncc(Cl)c(Nc3ccccc3S(=O)(=O)C(C)C)n2)c(OC(C)C)cc1C1CCNCC1 [LDK378]	0
Oc1cc(O)cc(/C=C/c2ccc(O)c(O)c2)c1 [Piceatannol]	0.1
CS(=O)(=O)N1CCN(Cc2cc3nc(-c4cccc5[nH]ncc45)nc(N4CCOCC4)c3s2)CC1 [GDC-0941]	0
CO[C@@H](C(=O)N1Cc2n[nH]c(NC(=O)c3ccc(N4CCN(C)CC4)cc3)c2C1)c1ccccc1 [Danusertib (PHA-739358)]	0.1
CCCNC(=O)Nc1ccc(Oc2ncnc3cc(OC)c(OC)cc23)cc1Cl [KRN 633]	-0.1
Cc1cc([C@@H](C)Nc2ccccc2C(=O)O)c2nc(N3CCOCC3)cc(=O)n2c1 [AZD6482]	-0.1
O=C(Nc1cccc(Cl)c1)Nc1ncc(CCNc2ncnc3ccsc23)s1 [SNS-314 Mesylate]	8.3
O=C(O)c1ccc(Nc2ncc3c(n2)-c2ccc(Cl)cc2C(c2c(F)cccc2F)=NC3)cc1 [MLN8054]	0.1
NC(=O)c1ncn([C@@H]2O[C@H](CO)[C@@H](O)[C@H]2O)c1N [Acadesine]	-0.2

====

biological target: LmxCLK1 (Leishmania mexicana, UniProt E9AMP2); assay: biochemical; type: binding; details: DSF, 10 µM compound, 2 µM LmxCLK1, mean of two runs; read-out: ΔTm Average
ΔTm at 10 µM: recorded values

Compound	ΔTm at 10 µM, °C
CNc1nc(Nc2cn(C(C)(C)C#N)nc2C)ncc1C(F)(F)F [GNE-0877]	-0.1
C[C@@H]1CN(CC(=O)Nc2ccc3c(c2)Cc2cccc(-c4cc(=O)cc(N5CCOCC5)o4)c2S3)C[C@H](C)O1 [KU-60019]	-0.1
CC(C)(C)NS(=O)(=O)c1cncc(-c2cc(F)c3nc(N)nn3c2)c1 [CZC24832]	-0.1

====

Target: LmxCLK1 (Leishmania mexicana, UniProt E9AMP2)
Sequence (E9AMP2 1-422): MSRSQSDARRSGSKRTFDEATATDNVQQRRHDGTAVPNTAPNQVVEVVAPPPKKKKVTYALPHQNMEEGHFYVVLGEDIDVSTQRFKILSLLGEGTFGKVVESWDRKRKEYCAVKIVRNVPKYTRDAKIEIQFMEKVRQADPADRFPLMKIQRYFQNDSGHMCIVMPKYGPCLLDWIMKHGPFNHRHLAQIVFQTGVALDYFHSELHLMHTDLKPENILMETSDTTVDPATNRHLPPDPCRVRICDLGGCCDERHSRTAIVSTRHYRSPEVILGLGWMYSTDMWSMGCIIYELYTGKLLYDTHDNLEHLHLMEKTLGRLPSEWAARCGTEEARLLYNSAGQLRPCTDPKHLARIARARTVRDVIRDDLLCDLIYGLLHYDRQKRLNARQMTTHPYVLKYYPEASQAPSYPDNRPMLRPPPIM
Experiment: biochemical
Type: binding
Conditions: DSF, 10 µM compound, 2 µM LmxCLK1, Run 2
Checkbox rule: ΔTm Run 2 lower than 0 °C = Condition met; ΔTm Run 2 not lower than 0 °C = Condition not met.

Molecule	Assay Target	Qualitative Label
CC1(C)CNc2cc(NC(=O)c3cccnc3NCc3ccncc3)ccc21.O=P(O)(O)O.O=P(O)(O)O [Motesanib Diphosphate (AMG-706)]	LmxCLK1 (Leishmania mexicana, UniProt E9AMP2)	Condition not met
CN(c1ncccc1CNc1nc(Nc2ccc3c(c2)CC(=O)N3)ncc1C(F)(F)F)S(C)(=O)=O	LmxCLK1 (Leishmania mexicana, UniProt E9AMP2)	Condition met
C=CC(=O)Nc1cccc(Nc2nc(Nc3ccc(N4CCN(C(C)=O)CC4)cc3OC)ncc2C(F)(F)F)c1	LmxCLK1 (Leishmania mexicana, UniProt E9AMP2)	Condition met
Cn1cc(C2=C(c3cn(C4CCN(Cc5ccccn5)CC4)c4ccccc34)C(=O)NC2=O)c2ccccc21	LmxCLK1 (Leishmania mexicana, UniProt E9AMP2)	Condition met
CC1(COc2ccc3c(c2)ncn3-c2ccc3cccc(N4CCC(N)CC4)c3n2)COC1	LmxCLK1 (Leishmania mexicana, UniProt E9AMP2)	Condition met
C[C@@H](Oc1cc(-c2cnn(C3CCNCC3)c2)cnc1N)c1c(Cl)ccc(F)c1Cl	LmxCLK1 (Leishmania mexicana, UniProt E9AMP2)	Condition not met
Cc1cnc(Nc2ccc(OCCN3CCCC3)cc2)nc1Nc1cccc(S(=O)(=O)NC(C)(C)C)c1 [TG101348 (SAR302503)]	LmxCLK1 (Leishmania mexicana, UniProt E9AMP2)	Condition not met

====

target: LmxCLK1 (Leishmania mexicana, UniProt E9AMP2); assay: biochemical; type: binding
Items are presented alongside their recorded ΔTm Run 1.

Compound	ΔTm Run 1
Cc1[nH]c2ccccc2c1C1=C(NCCc2ccc(F)cc2)C(=O)N(C)C1=O	-0.2
CCOc1cc(N2CCC(O)CC2)ccc1Nc1ncc2c(n1)N(C)c1ccccc1C(=O)N2C	-0.2
CN([C@@H](Cc1ccc(OS(=O)(=O)c2cccc3cnccc23)cc1)C(=O)N1CCN(c2ccccc2)CC1)S(=O)(=O)c1cccc2cnccc12	-0.4
C[C@@H]1COCCN1c1cc(C2(S(C)(=O)=O)CC2)nc(-c2cccc3[nH]ccc23)n1	-0.2
CCO.N#CC(=C(/N)Sc1ccccc1N)/C(C#N)=C(\N)Sc1ccccc1N	-0.4
O=C1NC(=O)/C(=C/c2cccc(C(F)(F)F)c2)S1	-0.3
CN(C)Cc1cccc(N/C(=C2\C(=O)Nc3cc(C(=O)N(C)C)ccc32)c2ccccc2)c1	-0.2
CNc1nc(Nc2cnn([C@H]3CCN(C4COC4)C[C@@H]3F)c2Cl)ncc1C(F)(F)F	-0.2
O=C(NCCO)c1cccc(-c2cc(Nc3ccc(OC(F)(F)F)cc3)ncn2)c1	-0.2
N#Cc1c(O)c2c(-c3ccc(-c4ccccc4O)cc3)csc2[nH]c1=O	-0.1
CNC(=O)c1c(F)cccc1Nc1nc(Nc2cc3c(cc2OC)CCN3C(=O)CN(C)C)nc2[nH]ccc12 [GSK1838705A]	-0.1
COc1c(C)c(C(=O)c2ccc(N)c(C(=O)[O-])c2)n2ccccc12.[Na+] [SSR128129E]	-0.1

Values from paper PMC7619385
